- Tested on: Staphylococcus aureus
- method-summary: Antibacterial activity against wild type methicillin-susceptible Staphylococcus aureus ATCC 49951 by broth microdilution method
- Format: functional
Listed next: entries and their corresponding MIC.
Kindly provide the numeric value in µg/mL only, without the unit symbol.

Example entries begin here.
Ask: Any idea what MIC came out for `Cc1cc(C(=O)N2CCN(c3cc4c(cc3F)c(=O)c(C(=O)O)cn4C3CC3)CC2)cc(C(=O)N2CCN(c3cc4c(cc3F)c(=O)c(C(=O)O)cn4C3CC3)CC2)c1` on Staphylococcus aureus?
Reply: 0.5

Ask: Any idea what MIC came out for `O=C(NCCCCC(=O)N1CCN(c2cc3c(cc2F)c(=O)c(C(=O)O)cn3C2CC2)CC1)c1cccc(C(=O)NCCCCC(=O)N2CCN(c3cc4c(cc3F)c(=O)c(C(=O)O)cn4C3CC3)CC2)c1` on Staphylococcus aureus?
Reply: 4

Note: attention shifts to another entry.
Ask: Any idea what MIC came out for `O=C(O)c1cn(C2CC2)c2cc(N3CCN(CCOCCOCCOCCN4CCN(c5cc6c(cc5F)c(=O)c(C(=O)O)cn6C5CC5)CC4)CC3)c(F)cc2c1=O` on Staphylococcus aureus?
Reply: 8

* * *

- System: Staphylococcus aureus
- method-summary: Antibacterial activity against wild type methicillin-susceptible Staphylococcus aureus ATCC 49951 by broth microdilution method
- Assay type: functional
experimental-endpoint: log10(MIC) (log10 of the value in µg/mL)
Base-10 log of MIC, unit µg/mL.

Ask: Requested read-out: log10(MIC). Entry: CC[C@H]1OC(=O)[C@H](C)[C@@H](O[C@H]2C[C@@](C)(OC)[C@@H](O)[C@H](C)O2)[C@H](C)[C@@H](O[C@@H]2O[C@H](C)C[C@H](N(C)C)[C@H]2O)[C@](C)(O)C[C@@H](C)C(=O)[C@H](C)[C@@H](O)[C@]1(C)O [ERYTHROMYCIN]
Reply: -0.60

Ask: Requested read-out: log10(MIC). Entry: `O=C(O)c1cn(C2CC2)c2cc(N3CCN(CCOCCOCCOc4ccc5ccc(=O)oc5c4)CC3)c(F)cc2c1=O`
Reply: 0.30

Ask: Requested read-out: log10(MIC). Entry: `O=C(O)c1cn(C2CC2)c2cc(N3CCN(CCOCCOCCN4CCN(c5cc6c(cc5F)c(=O)c(C(=O)O)cn6C5CC5)CC4)CC3)c(F)cc2c1=O`
Reply: 1.20

Ask: Requested read-out: log10(MIC). Entry: `O=C(O)c1cn(C2CC2)c2cc(N3CCN(C(=O)OCCOCCOCCOC(=O)N4CCN(c5cc6c(cc5F)c(=O)c(C(=O)O)cn6C5CC5)CC4)CC3)c(F)cc2c1=O`
Reply: 0.30

Ask: Requested read-out: log10(MIC). Entry: `O=C(O)c1cn(C2CC2)c2cc(N3CCN(C(=O)c4cccc(C(=O)N5CCN(c6cc7c(cc6F)c(=O)c(C(=O)O)cn7C6CC6)CC5)c4)CC3)c(F)cc2c1=O`
Reply: -0.60

Ask: Requested read-out: log10(MIC). Entry: `O=C(O)c1cn(C2CC2)c2cc(N3CCN(CCOCCOCCOCCOCCOCCOCCOCCN4CCN(c5cc6c(cc5F)c(=O)c(C(=O)O)cn6C5CC5)CC4)CC3)c(F)cc2c1=O`
Reply: 0.00

Ask: Requested read-out: log10(MIC). Entry: `C=CCCC(=O)N1CCN(c2cc3c(cc2F)c(=O)c(C(=O)O)cn3C2CC2)CC1`
Reply: -0.60

Ask: Requested read-out: log10(MIC). Entry: `O=C(CN1CCN(c2cc3c(cc2F)c(=O)c(C(=O)O)cn3C2CC2)CC1)NCCCN1CCN(CCCNC(=O)CN2CCN(c3cc4c(cc3F)c(=O)c(C(=O)O)cn4C3CC3)CC2)CC1`
Reply: 0.90

Ask: Requested read-out: log10(MIC). Entry: `C=CCN1CCN(c2cc3c(cc2F)c(=O)c(C(=O)O)cn3C2CC2)CC1`
Reply: -0.90

Ask: Requested read-out: log10(MIC). Entry: O=C(O)c1cn(C2CC2)c2cc(N3CCNCC3)c(F)cc2c1=O [CIPROFLOXACIN]
Reply: -0.60

Ask: Requested read-out: log10(MIC). Entry: `O=C(O)c1cn(C2CC2)c2cc(N3CCN(Cc4cccc(CN5CCN(c6cc7c(cc6F)c(=O)c(C(=O)O)cn7C6CC6)CC5)c4)CC3)c(F)cc2c1=O`
Reply: -0.60

Ask: Requested read-out: log10(MIC). Entry: `O=CN1CCN(c2cc3c(cc2F)c(=O)c(C(=O)O)cn3C2CC2)CC1`
Reply: -0.60

* * *

- Tested on: Escherichia coli
- method-summary: Antibacterial activity against tolC-deficient Escherichia coli JW5503-1 by broth microdilution method
- Format: functional
Listed next: entries and their corresponding MIC.

Example entries begin here.
Ask: Requested read-out: MIC. Entry: `O=C(O)c1cn(C2CC2)c2cc(N3CCN(CCOCCOCCN4CCN(c5cc6c(cc5F)c(=O)c(C(=O)O)cn6C5CC5)CC4)CC3)c(F)cc2c1=O`
Reply: 0.25 µg/mL

Ask: Requested read-out: MIC. Entry: `O=C(O)c1cn(C2CC2)c2cc(N3CCN(CCOCCOCCOCCN4CCN(c5cc6c(cc5F)c(=O)c(C(=O)O)cn6C5CC5)CC4)CC3)c(F)cc2c1=O`
Reply: 0.125 µg/mL

Ask: Requested read-out: MIC. Entry: `C=CCN1CCN(c2cc3c(cc2F)c(=O)c(C(=O)O)cn3C2CC2)CC1`
Reply: ≤ 0.03 µg/mL

Ask: Requested read-out: MIC. Entry: `O=C(NCCCCC(=O)N1CCN(c2cc3c(cc2F)c(=O)c(C(=O)O)cn3C2CC2)CC1)c1cccc(C(=O)NCCCCC(=O)N2CCN(c3cc4c(cc3F)c(=O)c(C(=O)O)cn4C3CC3)CC2)c1`
Reply: 0.5 µg/mL

Ask: Requested read-out: MIC. Entry: `C=CCCC(=O)N1CCN(c2cc3c(cc2F)c(=O)c(C(=O)O)cn3C2CC2)CC1`
Reply: ≤ 0.03 µg/mL

Ask: Requested read-out: MIC. Entry: CC[C@H]1OC(=O)[C@H](C)[C@@H](O[C@H]2C[C@@](C)(OC)[C@@H](O)[C@H](C)O2)[C@H](C)[C@@H](O[C@@H]2O[C@H](C)C[C@H](N(C)C)[C@H]2O)[C@](C)(O)C[C@@H](C)C(=O)[C@H](C)[C@@H](O)[C@]1(C)O [ERYTHROMYCIN]
Reply: 2 µg/mL

More entries:
Ask: Requested read-out: MIC. Entry: `CN(CC(=O)N1CCN(c2cc3c(cc2F)c(=O)c(C(=O)O)cn3C2CC2)CC1)CC(=O)N1CCN(c2cc3c(cc2F)c(=O)c(C(=O)O)cn3C2CC2)CC1`
Reply: 0.06 µg/mL

Ask: Requested read-out: MIC. Entry: `O=C(CCN1CCN(c2cc3c(cc2F)c(=O)c(C(=O)O)cn3C2CC2)CC1)NCCOCCNC(=O)CCN1CCN(c2cc3c(cc2F)c(=O)c(C(=O)O)cn3C2CC2)CC1`
Reply: 4 µg/mL

Ask: Requested read-out: MIC. Entry: `O=C(NCC(=O)N1CCN(c2cc3c(cc2F)c(=O)c(C(=O)O)cn3C2CC2)CC1)c1cccc(C(=O)NCC(=O)N2CCN(c3cc4c(cc3F)c(=O)c(C(=O)O)cn4C3CC3)CC2)c1`
Reply: 0.25 µg/mL

Ask: Requested read-out: MIC. Entry: O=C(O)c1cn(C2CC2)c2cc(N3CCNCC3)c(F)cc2c1=O [CIPROFLOXACIN]
Reply: ≤ 0.03 µg/mL

Ask: Requested read-out: MIC. Entry: `O=C(O)c1cn(C2CC2)c2cc(N3CCN(Cc4cccc(CN5CCN(c6cc7c(cc6F)c(=O)c(C(=O)O)cn7C6CC6)CC5)c4)CC3)c(F)cc2c1=O`
Reply: 0.06 µg/mL

Ask: Requested read-out: MIC. Entry: `O=C(O)c1cn(C2CC2)c2cc(N3CCN(CCOCCOCCOCCOCCOCCOCCOCCN4CCN(c5cc6c(cc5F)c(=O)c(C(=O)O)cn6C5CC5)CC4)CC3)c(F)cc2c1=O`
Reply: 0.125 µg/mL

* * *

Listed next: entries and their corresponding MIC.
- Test system: Escherichia coli
- method-summary: Antibacterial activity against tolC-deficient Escherichia coli NB27005-CDY0039 expressing gyrA S83L […], parC S80I mutant by broth microdilution method
- Assay type: functional
Kindly provide the numeric value in µg/mL only, without the unit symbol.

Ask: Requested read-out: MIC. Entry: `C=CCN1CCN(c2cc3c(cc2F)c(=O)c(C(=O)O)cn3C2CC2)CC1`
Reply: 2

Note: attention shifts to another entry.
Ask: Requested read-out: MIC. Entry: `CC[C@H]1OC(=O)[C@H](C)[C@@H](O[C@H]2C[C@@](C)(OC)[C@@H](O)[C@H](C)O2)[C@H](C)[C@@H](O[C@@H]2O[C@H](C)C[C@H](N(C)C)[C@H]2O)[C@](C)(O)C[C@@H](C)C(=O)[C@H](C)[C@@H](O)[C@]1(C)O`
Reply: 2

These measurements were taken from ChEMBL document CHEMBL3603745.
